- Tested on: MET
- assay-details: MET biochemical kinase assay
- Set-up: species or system human; concentration or dose not given beside the values
assay-metric: Met Kinase % Inhibition (%)

>>> reading("Cc1c(Br)ccc2c1C(=Cc1ccc3c(c1)Cc1ccccc1-3)C(=O)N2")
22.9
>>> reading("CC(=O)Oc1ccc(C=C2C(=O)Nc3ccc(S(=O)(=O)N4CCOCC4)cc32)cc1OC(C)=O")
45.6
>>> reading("CCOc1cc(C=C2C(=O)Nc3ccc(I)cc32)ccc1O")
57.4
>>> reading("CCc1c(C)[nH]c(C=C2C(=O)Nc3ccc(S(=O)(=O)N4CCOCC4)cc32)c1C")
63.1
>>> reading("COc1cc(N(C)C)ccc1C=C1C(=O)Nc2ccc(CCCl)cc21")
63.1
>>> reading("O=C1Nc2ccc(CCCl)cc2C1=Cc1cccs1")
4.5
>>> reading("COc1ccc(C=C2C(=O)Nc3ccc(CCCl)cc32)cc1C(C)(C)C")
15.2
>>> reading("O=C1Nc2c(Br)cc(Br)cc2C1=Cc1cc(Br)ccc1O")
22.1
>>> reading("COc1cc(C=C2C(=O)Nc3ccc(CCCl)cc32)cc(OC)c1")
20.9
>>> reading("Cc1c(Br)ccc2c1C(=C1C(=O)Nc3ccccc31)C(=O)N2")
48.5
>>> reading("O=C1Nc2c(Br)cc(Br)cc2C1=Cc1cccnc1")
48.1
>>> reading("O=C1Nc2ccc(F)cc2C1=C1C(=O)Nc2ccc(S(=O)(=O)N3CCOCC3)cc21")
67.3
>>> reading("O=C1Nc2ccc(S(=O)(=O)N3CCOCC3)cc2C1=Cc1c(F)cc(F)cc1F")
17.8
>>> reading("Cc1c(Br)ccc2c1C(=Cc1ccc(O)c(O)c1)C(=O)N2")
69.1
>>> reading("CC(C)(C)c1cc(C=C2C(=O)Nc3ccc(CCCl)cc32)c(O)c(C(C)(C)C)c1")
39.4
>>> reading("CCN(CC)c1ccc(C=C2C(=O)Nc3ccc(S(=O)(=O)Nc4ccc(C(F)(F)F)cc4)cc32)cc1")
28.0
>>> reading("O=C1Nc2ccc(S(=O)(=O)Nc3ccc(C(F)(F)F)cc3)cc2C1=Cc1coc2c(Br)cc(Br)cc2c1=O")
33.9
>>> reading("CC(C)(C)c1cc(C=C2C(=O)Nc3ccc(I)cc32)ccc1OCc1ccccc1")
74.3

====

- target-of-assay: EGFR (Homo sapiens)
- Construct: Add 7 ug A431 cell lysate per well (EGFR source); endogenous in cells; host or cells: A431
- Sequence (P00533 25-1210): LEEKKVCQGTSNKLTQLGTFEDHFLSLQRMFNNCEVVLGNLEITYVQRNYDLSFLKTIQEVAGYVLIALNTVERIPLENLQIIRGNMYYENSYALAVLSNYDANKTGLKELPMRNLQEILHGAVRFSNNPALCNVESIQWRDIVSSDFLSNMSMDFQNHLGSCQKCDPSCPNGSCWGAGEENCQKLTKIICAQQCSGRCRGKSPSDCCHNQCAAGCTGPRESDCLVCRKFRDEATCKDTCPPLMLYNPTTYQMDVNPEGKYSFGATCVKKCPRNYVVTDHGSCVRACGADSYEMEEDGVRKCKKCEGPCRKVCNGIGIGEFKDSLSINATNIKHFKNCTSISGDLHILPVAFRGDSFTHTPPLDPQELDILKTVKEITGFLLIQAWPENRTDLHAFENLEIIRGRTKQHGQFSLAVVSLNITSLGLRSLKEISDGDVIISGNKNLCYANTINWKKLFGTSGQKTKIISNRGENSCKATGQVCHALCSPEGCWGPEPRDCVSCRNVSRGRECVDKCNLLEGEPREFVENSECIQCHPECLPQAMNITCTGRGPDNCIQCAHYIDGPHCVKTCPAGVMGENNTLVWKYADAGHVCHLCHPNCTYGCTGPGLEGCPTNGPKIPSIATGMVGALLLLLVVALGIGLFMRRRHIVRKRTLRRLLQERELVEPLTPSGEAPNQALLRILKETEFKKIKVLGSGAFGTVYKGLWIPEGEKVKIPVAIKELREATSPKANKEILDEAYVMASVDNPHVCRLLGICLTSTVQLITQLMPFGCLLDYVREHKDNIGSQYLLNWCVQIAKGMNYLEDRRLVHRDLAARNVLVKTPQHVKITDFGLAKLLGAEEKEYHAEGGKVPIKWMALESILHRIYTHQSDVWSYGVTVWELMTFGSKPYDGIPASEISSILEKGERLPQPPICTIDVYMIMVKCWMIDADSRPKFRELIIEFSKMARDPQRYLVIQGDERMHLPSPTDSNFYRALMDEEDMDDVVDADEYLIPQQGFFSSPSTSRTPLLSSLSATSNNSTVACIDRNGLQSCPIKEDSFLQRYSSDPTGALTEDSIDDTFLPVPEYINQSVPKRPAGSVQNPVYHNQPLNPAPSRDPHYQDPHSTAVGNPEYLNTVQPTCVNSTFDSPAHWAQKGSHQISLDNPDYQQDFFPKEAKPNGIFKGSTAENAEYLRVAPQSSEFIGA
- assay-details: EGFR ELISA assay (in vitro kinase activity, EGFR captured from A431 cell lysate)
- Assay type: biochemical
- Parameters: concentration or dose not given beside the values
Some compounds, each annotated with its measured Biochem EGFR %Inhibition.
assay-metric: Biochem EGFR %Inhibition (%)

>>> reading("O=C1Nc2ccc(S(=O)(=O)Nc3ccc(C(F)(F)F)cc3)cc2C1=Cc1cc(Cl)ccc1O [10734/E04]")
-7.8
>>> reading("COc1ccc(Br)c(C=C2C(=O)Nc3ccc(CCCl)cc32)c1O [10725/G03]")
-2.5
>>> reading("COc1ccc(C=C2C(=O)Nc3ccc(S(=O)(=O)N4CCOCC4)cc32)c(OC)c1 [10719/F04]")
-6.0
>>> reading("COc1c(C(C)C)cc(C=C2C(=O)Nc3ccc(I)cc32)cc1C(C)C [10732/B03]")
-15.3
>>> reading("Cc1c(Br)ccc2c1C(=Cc1ccc(N3CCOCC3)cc1)C(=O)N2 [10725/C08]")
-11.9
